B1: library; a variant is named by its letters at N, in order (parent)
chain: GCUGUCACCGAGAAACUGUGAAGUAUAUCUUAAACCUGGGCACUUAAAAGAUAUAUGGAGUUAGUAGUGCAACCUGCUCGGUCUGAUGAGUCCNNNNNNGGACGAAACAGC

- Variants of: B1
- EXPERIMENT DESCRIPTION: normalized RNA/DNA level without ligand (relative to sTRSVctl = 100) (log10 (% of sTRSVctl)); HEK293T; ligand: cyclic di-GMP (c-di-GMP-II aptamer); higher = less ribozyme self-cleavage, higher mRNA level
- CONDITIONS USED: reporter: mCherry (pCS4076), ligand present: no
MEASURED QUANTITY: normalized RNA/DNA level without ligand (log10)

CHAIN: GCUGUCACCGAGAAACUGUGAAGUAUAUCUUAAACCUGGGCACUUAAAAGAUAUAUGGAGUUAGUAGUGCAACCUGCUCGGUCUGAUGAGUCCAGAAGAGGACGAAACAGC [AGAAGA]
ASSAY VALUE: 1.36
//
CHAIN: GCUGUCACCGAGAAACUGUGAAGUAUAUCUUAAACCUGGGCACUUAAAAGAUAUAUGGAGUUAGUAGUGCAACCUGCUCGGUCUGAUGAGUCCCCGCUAGGACGAAACAGC [CCGCUA]
ASSAY VALUE: 1.43
//
CHAIN: GCUGUCACCGAGAAACUGUGAAGUAUAUCUUAAACCUGGGCACUUAAAAGAUAUAUGGAGUUAGUAGUGCAACCUGCUCGGUCUGAUGAGUCCUUCGGGGGACGAAACAGC [UUCGGG]
ASSAY VALUE: 1.77
//
CHAIN: GCUGUCACCGAGAAACUGUGAAGUAUAUCUUAAACCUGGGCACUUAAAAGAUAUAUGGAGUUAGUAGUGCAACCUGCUCGGUCUGAUGAGUCCAAGCCAGGACGAAACAGC [AAGCCA]
ASSAY VALUE: 1.63
//
CHAIN: GCUGUCACCGAGAAACUGUGAAGUAUAUCUUAAACCUGGGCACUUAAAAGAUAUAUGGAGUUAGUAGUGCAACCUGCUCGGUCUGAUGAGUCCUUACGCGGACGAAACAGC [UUACGC]
ASSAY VALUE: 1.74
//
CHAIN: GCUGUCACCGAGAAACUGUGAAGUAUAUCUUAAACCUGGGCACUUAAAAGAUAUAUGGAGUUAGUAGUGCAACCUGCUCGGUCUGAUGAGUCCGAUAAAGGACGAAACAGC [GAUAAA]
ASSAY VALUE: 1.47
//
CHAIN: GCUGUCACCGAGAAACUGUGAAGUAUAUCUUAAACCUGGGCACUUAAAAGAUAUAUGGAGUUAGUAGUGCAACCUGCUCGGUCUGAUGAGUCCCGAAGGGGACGAAACAGC [CGAAGG]
ASSAY VALUE: 1.63
//
CHAIN: GCUGUCACCGAGAAACUGUGAAGUAUAUCUUAAACCUGGGCACUUAAAAGAUAUAUGGAGUUAGUAGUGCAACCUGCUCGGUCUGAUGAGUCCAUCGAAGGACGAAACAGC [AUCGAA]
ASSAY VALUE: 1.45
//
CHAIN: GCUGUCACCGAGAAACUGUGAAGUAUAUCUUAAACCUGGGCACUUAAAAGAUAUAUGGAGUUAGUAGUGCAACCUGCUCGGUCUGAUGAGUCCGUUAUUGGACGAAACAGC [GUUAUU]
ASSAY VALUE: 1.68
//
CHAIN: GCUGUCACCGAGAAACUGUGAAGUAUAUCUUAAACCUGGGCACUUAAAAGAUAUAUGGAGUUAGUAGUGCAACCUGCUCGGUCUGAUGAGUCCGGUACGGGACGAAACAGC [GGUACG]
ASSAY VALUE: 1.66
//
CHAIN: GCUGUCACCGAGAAACUGUGAAGUAUAUCUUAAACCUGGGCACUUAAAAGAUAUAUGGAGUUAGUAGUGCAACCUGCUCGGUCUGAUGAGUCCGCGUCCGGACGAAACAGC [GCGUCC]
ASSAY VALUE: 1.63
//
CHAIN: GCUGUCACCGAGAAACUGUGAAGUAUAUCUUAAACCUGGGCACUUAAAAGAUAUAUGGAGUUAGUAGUGCAACCUGCUCGGUCUGAUGAGUCCAUUAGUGGACGAAACAGC [AUUAGU]
ASSAY VALUE: 1.69
//
CHAIN: GCUGUCACCGAGAAACUGUGAAGUAUAUCUUAAACCUGGGCACUUAAAAGAUAUAUGGAGUUAGUAGUGCAACCUGCUCGGUCUGAUGAGUCCAAGAGGGGACGAAACAGC [AAGAGG]
ASSAY VALUE: 1.53
//
CHAIN: GCUGUCACCGAGAAACUGUGAAGUAUAUCUUAAACCUGGGCACUUAAAAGAUAUAUGGAGUUAGUAGUGCAACCUGCUCGGUCUGAUGAGUCCACGAGAGGACGAAACAGC [ACGAGA]
ASSAY VALUE: 1.29
//
CHAIN: GCUGUCACCGAGAAACUGUGAAGUAUAUCUUAAACCUGGGCACUUAAAAGAUAUAUGGAGUUAGUAGUGCAACCUGCUCGGUCUGAUGAGUCCCCACCAGGACGAAACAGC [CCACCA]
ASSAY VALUE: 1.71
//
CHAIN: GCUGUCACCGAGAAACUGUGAAGUAUAUCUUAAACCUGGGCACUUAAAAGAUAUAUGGAGUUAGUAGUGCAACCUGCUCGGUCUGAUGAGUCCGUUAUCGGACGAAACAGC [GUUAUC]
ASSAY VALUE: 1.51
//
CHAIN: GCUGUCACCGAGAAACUGUGAAGUAUAUCUUAAACCUGGGCACUUAAAAGAUAUAUGGAGUUAGUAGUGCAACCUGCUCGGUCUGAUGAGUCCGCAGAGGGACGAAACAGC [GCAGAG]
ASSAY VALUE: 1.4
//
CHAIN: GCUGUCACCGAGAAACUGUGAAGUAUAUCUUAAACCUGGGCACUUAAAAGAUAUAUGGAGUUAGUAGUGCAACCUGCUCGGUCUGAUGAGUCCAGACUUGGACGAAACAGC [AGACUU]
ASSAY VALUE: 1.68
//
CHAIN: GCUGUCACCGAGAAACUGUGAAGUAUAUCUUAAACCUGGGCACUUAAAAGAUAUAUGGAGUUAGUAGUGCAACCUGCUCGGUCUGAUGAGUCCUAAAUCGGACGAAACAGC [UAAAUC]
ASSAY VALUE: 1.63
//
CHAIN: GCUGUCACCGAGAAACUGUGAAGUAUAUCUUAAACCUGGGCACUUAAAAGAUAUAUGGAGUUAGUAGUGCAACCUGCUCGGUCUGAUGAGUCCGUUGGAGGACGAAACAGC [GUUGGA]
ASSAY VALUE: 1.56
//
CHAIN: GCUGUCACCGAGAAACUGUGAAGUAUAUCUUAAACCUGGGCACUUAAAAGAUAUAUGGAGUUAGUAGUGCAACCUGCUCGGUCUGAUGAGUCCGUCCUUGGACGAAACAGC [GUCCUU]
ASSAY VALUE: 1.7
//
CHAIN: GCUGUCACCGAGAAACUGUGAAGUAUAUCUUAAACCUGGGCACUUAAAAGAUAUAUGGAGUUAGUAGUGCAACCUGCUCGGUCUGAUGAGUCCCUCCUGGGACGAAACAGC [CUCCUG]
ASSAY VALUE: 1.78
//
CHAIN: GCUGUCACCGAGAAACUGUGAAGUAUAUCUUAAACCUGGGCACUUAAAAGAUAUAUGGAGUUAGUAGUGCAACCUGCUCGGUCUGAUGAGUCCAGGCUUGGACGAAACAGC [AGGCUU]
ASSAY VALUE: 1.65
//
CHAIN: GCUGUCACCGAGAAACUGUGAAGUAUAUCUUAAACCUGGGCACUUAAAAGAUAUAUGGAGUUAGUAGUGCAACCUGCUCGGUCUGAUGAGUCCCUUAGCGGACGAAACAGC [CUUAGC]
ASSAY VALUE: 1.79
//
CHAIN: GCUGUCACCGAGAAACUGUGAAGUAUAUCUUAAACCUGGGCACUUAAAAGAUAUAUGGAGUUAGUAGUGCAACCUGCUCGGUCUGAUGAGUCCUUAUACGGACGAAACAGC [UUAUAC]
ASSAY VALUE: 1.73
//
CHAIN: GCUGUCACCGAGAAACUGUGAAGUAUAUCUUAAACCUGGGCACUUAAAAGAUAUAUGGAGUUAGUAGUGCAACCUGCUCGGUCUGAUGAGUCCAUCAUGGGACGAAACAGC [AUCAUG]
ASSAY VALUE: 1.62
//
CHAIN: GCUGUCACCGAGAAACUGUGAAGUAUAUCUUAAACCUGGGCACUUAAAAGAUAUAUGGAGUUAGUAGUGCAACCUGCUCGGUCUGAUGAGUCCUUACUCGGACGAAACAGC [UUACUC]
ASSAY VALUE: 1.75
//
CHAIN: GCUGUCACCGAGAAACUGUGAAGUAUAUCUUAAACCUGGGCACUUAAAAGAUAUAUGGAGUUAGUAGUGCAACCUGCUCGGUCUGAUGAGUCCUCGGCUGGACGAAACAGC [UCGGCU]
ASSAY VALUE: 1.77
//
CHAIN: GCUGUCACCGAGAAACUGUGAAGUAUAUCUUAAACCUGGGCACUUAAAAGAUAUAUGGAGUUAGUAGUGCAACCUGCUCGGUCUGAUGAGUCCACACGAGGACGAAACAGC [ACACGA]
ASSAY VALUE: 1.37
//
CHAIN: GCUGUCACCGAGAAACUGUGAAGUAUAUCUUAAACCUGGGCACUUAAAAGAUAUAUGGAGUUAGUAGUGCAACCUGCUCGGUCUGAUGAGUCCCUAGGCGGACGAAACAGC [CUAGGC]
ASSAY VALUE: 1.74
//
CHAIN: GCUGUCACCGAGAAACUGUGAAGUAUAUCUUAAACCUGGGCACUUAAAAGAUAUAUGGAGUUAGUAGUGCAACCUGCUCGGUCUGAUGAGUCCUUUAAAGGACGAAACAGC [UUUAAA]
ASSAY VALUE: 1.65
//
CHAIN: GCUGUCACCGAGAAACUGUGAAGUAUAUCUUAAACCUGGGCACUUAAAAGAUAUAUGGAGUUAGUAGUGCAACCUGCUCGGUCUGAUGAGUCCGCAAAAGGACGAAACAGC [GCAAAA]
ASSAY VALUE: 1.35
//
CHAIN: GCUGUCACCGAGAAACUGUGAAGUAUAUCUUAAACCUGGGCACUUAAAAGAUAUAUGGAGUUAGUAGUGCAACCUGCUCGGUCUGAUGAGUCCGAUUCAGGACGAAACAGC [GAUUCA]
ASSAY VALUE: 1.72
//
CHAIN: GCUGUCACCGAGAAACUGUGAAGUAUAUCUUAAACCUGGGCACUUAAAAGAUAUAUGGAGUUAGUAGUGCAACCUGCUCGGUCUGAUGAGUCCACGCCAGGACGAAACAGC [ACGCCA]
ASSAY VALUE: 1.68
//
CHAIN: GCUGUCACCGAGAAACUGUGAAGUAUAUCUUAAACCUGGGCACUUAAAAGAUAUAUGGAGUUAGUAGUGCAACCUGCUCGGUCUGAUGAGUCCUCCAGCGGACGAAACAGC [UCCAGC]
ASSAY VALUE: 1.66
//
CHAIN: GCUGUCACCGAGAAACUGUGAAGUAUAUCUUAAACCUGGGCACUUAAAAGAUAUAUGGAGUUAGUAGUGCAACCUGCUCGGUCUGAUGAGUCCGCCAGUGGACGAAACAGC [GCCAGU]
ASSAY VALUE: 1.6
//
CHAIN: GCUGUCACCGAGAAACUGUGAAGUAUAUCUUAAACCUGGGCACUUAAAAGAUAUAUGGAGUUAGUAGUGCAACCUGCUCGGUCUGAUGAGUCCUUAUGAGGACGAAACAGC [UUAUGA]
ASSAY VALUE: 1.63
//
CHAIN: GCUGUCACCGAGAAACUGUGAAGUAUAUCUUAAACCUGGGCACUUAAAAGAUAUAUGGAGUUAGUAGUGCAACCUGCUCGGUCUGAUGAGUCCUCUCUUGGACGAAACAGC [UCUCUU]
ASSAY VALUE: 1.74
//
CHAIN: GCUGUCACCGAGAAACUGUGAAGUAUAUCUUAAACCUGGGCACUUAAAAGAUAUAUGGAGUUAGUAGUGCAACCUGCUCGGUCUGAUGAGUCCCCAAAUGGACGAAACAGC [CCAAAU]
ASSAY VALUE: 1.52
//
CHAIN: GCUGUCACCGAGAAACUGUGAAGUAUAUCUUAAACCUGGGCACUUAAAAGAUAUAUGGAGUUAGUAGUGCAACCUGCUCGGUCUGAUGAGUCCCACGGCGGACGAAACAGC [CACGGC]
ASSAY VALUE: 1.75
//
CHAIN: GCUGUCACCGAGAAACUGUGAAGUAUAUCUUAAACCUGGGCACUUAAAAGAUAUAUGGAGUUAGUAGUGCAACCUGCUCGGUCUGAUGAGUCCCCCGUUGGACGAAACAGC [CCCGUU]
ASSAY VALUE: 1.74
//
CHAIN: GCUGUCACCGAGAAACUGUGAAGUAUAUCUUAAACCUGGGCACUUAAAAGAUAUAUGGAGUUAGUAGUGCAACCUGCUCGGUCUGAUGAGUCCGCGUUCGGACGAAACAGC [GCGUUC]
ASSAY VALUE: 1.34
//
CHAIN: GCUGUCACCGAGAAACUGUGAAGUAUAUCUUAAACCUGGGCACUUAAAAGAUAUAUGGAGUUAGUAGUGCAACCUGCUCGGUCUGAUGAGUCCUCCUGCGGACGAAACAGC [UCCUGC]
ASSAY VALUE: 1.79
//
CHAIN: GCUGUCACCGAGAAACUGUGAAGUAUAUCUUAAACCUGGGCACUUAAAAGAUAUAUGGAGUUAGUAGUGCAACCUGCUCGGUCUGAUGAGUCCGUAUUAGGACGAAACAGC [GUAUUA]
ASSAY VALUE: 1.58
//
CHAIN: GCUGUCACCGAGAAACUGUGAAGUAUAUCUUAAACCUGGGCACUUAAAAGAUAUAUGGAGUUAGUAGUGCAACCUGCUCGGUCUGAUGAGUCCUCCAAAGGACGAAACAGC [UCCAAA]
ASSAY VALUE: 1.57
//
CHAIN: GCUGUCACCGAGAAACUGUGAAGUAUAUCUUAAACCUGGGCACUUAAAAGAUAUAUGGAGUUAGUAGUGCAACCUGCUCGGUCUGAUGAGUCCCACGUAGGACGAAACAGC [CACGUA]
ASSAY VALUE: 1.5
